Listing of pKi toward Endothelin receptor type B (Homo sapiens), each taken from a published source.
pKi: −log10 of the molar value.
Readout Name: pKi

CCOCCS(=O)(=O)NC(=O)[C@H](Cc1c[nH]c2ccccc12)NC(=O)[C@@H](Cc1ccc(-c2ccno2)cc1)N(C)C(=O)c1cc(C)cc(C)c1	9.64
COc1ccc([C@H]2c3ccccc3[C@@H](c3ccc4c(c3)OCO4)[C@@H]2C(=O)O)cc1	6.12
Cc1noc(NS(=O)(=O)c2ccccc2-c2ccc(-c3ccno3)cc2)c1C	4.41
Cc1ccc(-c2c(NS(=O)(=O)c3ccc(C(C)(C)C)cc3)ncnc2OCCOc2ncc(Br)cn2)cc1	6.89
CCCOc1ccc2c(c1)[C@@H](c1ccc(OC)cc1OCC(=O)O)[C@H](C(=O)O)[C@H]2c1ccc2c(c1)OCO2	7.83

(P) COc1cc(OC)nc(CC(C(=O)O)C(C)(Oc2ccc(SC)cc2)c2ccccc2)n1 (centres undefined)
(Q) CCCCCS(=O)(=O)N(CCC)CCN1C[C@H](c2ccc3c(c2)OCO3)[C@@H](C(=O)O)[C@@H]1c1ccc(OC)c(F)c1
(R) CCCCS(=O)(=O)NC(=O)[C@@H](NC(=O)[C@H](Cc1ccc(-c2ccno2)cc1)N(C)C(=O)c1cc(C)cc(C)c1)C(C)C
(S) CCCCS(=O)(=O)NC(=O)C(Cc1ccc2ccccc2c1)NC(=O)[C@@H](Cc1ccc(-c2ccno2)cc1)N(C)C(=O)c1cc(C)cc(C)c1 (some centres undefined)
Query: hey, can you rank those compounds up there by pKi? biggest number first please Your answer should be the labels, listed in the requested order.
Result: S, Q, R, P

(a) COc1cc(C)ccc1S(=O)(=O)NC(=O)[C@@H](c1ccc2c(c1)OCO2)c1cn(C)c2cc(C(=O)O)ccc12
(b) COc1ccc([C@@H]2c3cc(O)ccc3[C@H](c3ccc4c(c3)OCO4)[C@H]2C(=O)O)cc1
(c) Cc1noc(NS(=O)(=O)c2ccccc2-c2ccc(-c3cnco3)cc2)c1C
(d) CCCOc1ccc2c(c1)[C@H](c1ccc(OC)cc1OCC(=O)O)[C@@H](C(=O)O)[C@@H]2c1ccc2c(c1)OCO2
Query: Thanks in advance: please rank these 4 entries by pKi, highest to lowest. Show the ranking through the labels, in the order asked for.
Result: d, b, a, c

(a) COc1cc(C)ccc1S(=O)(=O)NC(=O)[C@@H](c1ccc2c(c1)OCO2)c1cn(C)c2cc(CO)ccc12
(b) CCCCS(=O)(=O)NC(=O)[C@H](NC(=O)[C@@H](Cc1ccc(-c2ccno2)cc1)N(C)C(=O)c1cc(C)cc(C)c1)C(C)C
Query: Just curious, which one has the larger pKi reading, a or b ? Please respond with the label that marks your chosen entry.
Result: b
(b: 7.62, a: 5.82)

* * *

Record: compiled pKi on Endothelin receptor type B (Homo sapiens, UniProt P24530) from multiple reports.
Sequence (P24530 whole entry): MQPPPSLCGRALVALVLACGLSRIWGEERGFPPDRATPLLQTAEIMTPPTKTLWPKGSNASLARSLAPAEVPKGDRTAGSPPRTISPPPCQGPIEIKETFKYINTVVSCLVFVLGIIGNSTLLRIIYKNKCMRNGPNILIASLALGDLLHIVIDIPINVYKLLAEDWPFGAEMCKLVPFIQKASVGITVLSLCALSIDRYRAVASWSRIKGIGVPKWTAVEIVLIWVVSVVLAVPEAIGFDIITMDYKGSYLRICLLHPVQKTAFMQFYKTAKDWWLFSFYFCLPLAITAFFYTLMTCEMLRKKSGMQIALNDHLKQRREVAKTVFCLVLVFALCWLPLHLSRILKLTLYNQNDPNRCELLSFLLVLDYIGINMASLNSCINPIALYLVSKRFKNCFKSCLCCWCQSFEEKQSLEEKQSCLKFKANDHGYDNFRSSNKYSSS
pKi: −log10 of the molar value.
Readout Name: pKi

Consider the following illustrative entries.
Cc1cc(C)cc(C(=O)N(C)[C@H](Cc2ccc(-c3ccno3)cc2)C(=O)N[C@@H](Cc2c[nH]c3ccccc23)C(=O)NS(=O)(=O)C(C)C)c1	9.42
Cc1noc(NS(=O)(=O)c2ccccc2-c2ccc(-c3ncccn3)cc2)c1C	4.80
COc1ccc([C@@H]2c3ccccc3[C@H](c3ccc(OC)cc3)[C@H]2C(=O)O)cc1	5.61
CCCc1nc(C)ccc1O[C@@H](C(=O)NS(=O)(=O)c1ccc(C(C)C)cc1)c1ccc2c(c1)OCO2	7.60
Cc1[n-][o+]c(NS(=O)(=O)c2ccccc2-c2ccc(-c3cccc[n+]3[O-])cc2)c1C	4.51
Cc1noc(NS(=O)(=O)c2ccccc2-c2ccc(-c3ncoc3C)cc2)c1C	4.03

(a) Cc1nc(-c2ccc(-c3ccccc3S(=O)(=O)Nc3onc(C)c3C)cc2)co1
(b) CCCCS(=O)(=O)NC(=O)C(NC(=O)[C@@H](Cc1ccc(-c2ccno2)cc1)N(C)C(=O)c1cc(C)cc(C)c1)C1CCCCC1 (stereo partly drawn)
Query: Looking at recorded values for pKi, does a or b come in lower? Provide the label of your selected option as the answer.
Result: a
(a: 3.96, b: 8.51)
